Molecular target: T1, human GIPR (human, UniProt P48546 22-466)
T1 sequence (looked up): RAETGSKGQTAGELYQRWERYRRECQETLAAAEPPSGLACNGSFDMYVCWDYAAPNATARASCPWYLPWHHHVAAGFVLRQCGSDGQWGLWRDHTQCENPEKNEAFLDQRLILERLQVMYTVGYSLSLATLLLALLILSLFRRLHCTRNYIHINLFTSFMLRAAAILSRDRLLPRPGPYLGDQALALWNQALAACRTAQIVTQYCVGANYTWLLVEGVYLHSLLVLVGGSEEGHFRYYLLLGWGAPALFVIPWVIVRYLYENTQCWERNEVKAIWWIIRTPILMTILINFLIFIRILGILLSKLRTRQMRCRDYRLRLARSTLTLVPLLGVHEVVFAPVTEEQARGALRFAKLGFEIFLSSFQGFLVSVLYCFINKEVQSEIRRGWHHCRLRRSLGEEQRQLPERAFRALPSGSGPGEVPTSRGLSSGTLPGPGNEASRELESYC
Assay: cell-based or functional assay
Square brackets hold non-standard residues; d marks the D form. Side chains are listed from the residue outwards. Phe(2-F) = N[C@@H](Cc1ccccc1F)C(=O)O; αMeF = C[C@](N)(Cc1ccccc1)C(=O)O; Iva = CC[C@](C)(N)C(=O)O; Oda = not defined here; Aib = CC(C)(N)C(=O)O
Some binders, each annotated with its measured Agonist activity (EC50), Cre-luc reporter assay.

Binder | Test Result
Me-Y[Aib]EGT[αMeF]TSDK([Gly-Gly-Gly-Gly-Oda])[Aib]I[Aib]LDKQAQ[Iva]EFVRHLLNK[Aib]TRQRY-NH2 (reading uncertain; also: printed as Me-Tyr-Aib-Glu-Gly-Thr-αMePhe-Thr-Ser-Asp-Lys(-Gly-Gly-Gly-Gly-Oda)-Aib-Ile-Aib-Leu-Asp-Lys-Gln-Ala-Gln-Iva-Glu-Phe-Val-Arg-His-Leu-Leu-Asn-Lys-Aib-Thr-Arg-Gln-Arg-Tyr-NH2) | 74 pM

Enquiry: Kindly indicate its recorded Agonist activity (EC50), Cre-luc reporter assay. Item: H-Y[Aib]EGT[αMeF]TSDK([Gly-Gly-Gly-Gly-Pal])[Aib]I[Aib]LEKQRQ[Iva]EFVRHLLNK[Aib]TRQRY-NH2
Return: 49 pM

Enquiry: Kindly indicate its recorded Agonist activity (EC50), Cre-luc reporter assay. Item: Me-Y[Aib]EGT[αMeF]TSDK([Gly-Gly-Gly-Gly-Pal])AI[Aib]LDKQRQ[Iva]EFVRHLLNK[Aib]TRQRY-NH2
Return: 74 pM

Enquiry: Kindly indicate its recorded Agonist activity (EC50), Cre-luc reporter assay. Item: Me-Y[Aib]EGT[αMeF]TSDK([Gly-Gly-Gly-Gly-Oda])[Aib]I[Aib]LDKQRQ[Iva]EFVRHLLNK[Aib]TRQR[Phe(2-F)]-NH2 (reading uncertain; also: printed as Me-Tyr-Aib-Glu-Gly-Thr-αMePhe-Thr-Ser-Asp-Lys(-Gly-Gly-Gly-Gly-Oda)-Aib-Ile-Aib-Leu-Asp-Lys-Gln-Arg-Gln-Iva-Glu-Phe-Val-Arg-His-Leu-Leu-Asn-Lys-Aib-Thr-Arg-Gln-Arg-Phe(2-F)-NH2)
Return: 290 pM

Enquiry: Kindly indicate its recorded Agonist activity (EC50), Cre-luc reporter assay. Item: H-Y[Aib]EGT[αMeF]TSDK([Gly-Gly-Gly-Gly-Oda])[Aib]K[Aib]LDKQRQ[Iva]EFVRHLLNK[Aib]TRQRY-NH2 (reading uncertain; also: printed as H-Tyr-Aib-Glu-Gly-Thr-αMePhe-Thr-Ser-Asp-Lys(-Gly-Gly-Gly-Gly-Oda)-Aib-Lys-Aib-Leu-Asp-Lys-Gln-Arg-Gln-Iva-Glu-Phe-Val-Arg-His-Leu-Leu-Asn-Lys-Aib-Thr-Arg-Gln-Arg-Tyr-NH2)
Return: 1000 pM

Attribution: patent US20190202883A1
